ASSAY_EXPLANATION: patients with anti-drug antibodies; higher = more immunogenic
Form field: patients with anti-drug antibodies (one value per entry).
Answer format: numeric, % implied, no suffix.

For orientation, consider the following solved cases.
unnamed (protein) chain 1: EVQLVESGGGLVQPGRSLRLSCAASGFTFNDYAMHWVRQAPGKGLEWVSTISWNSGSIGYADSVKGRFTISRDNAKKSLYLQMNSLRAEDTALYYCAKDIQYGNYYYGMDVWGQGTTVTVSS chain 2: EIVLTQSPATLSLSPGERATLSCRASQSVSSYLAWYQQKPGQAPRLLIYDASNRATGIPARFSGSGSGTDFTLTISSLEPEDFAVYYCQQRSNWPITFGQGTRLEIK
0
unnamed (protein) chain 1: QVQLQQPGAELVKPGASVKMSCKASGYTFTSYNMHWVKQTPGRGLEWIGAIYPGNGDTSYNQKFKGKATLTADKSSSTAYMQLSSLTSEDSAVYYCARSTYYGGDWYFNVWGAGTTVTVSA chain 2: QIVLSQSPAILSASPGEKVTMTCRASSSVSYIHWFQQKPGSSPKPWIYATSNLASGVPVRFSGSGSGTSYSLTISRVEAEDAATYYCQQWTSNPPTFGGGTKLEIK
11

What patients with anti-drug antibodies value was documented for this protein, unnamed (protein) chain 1: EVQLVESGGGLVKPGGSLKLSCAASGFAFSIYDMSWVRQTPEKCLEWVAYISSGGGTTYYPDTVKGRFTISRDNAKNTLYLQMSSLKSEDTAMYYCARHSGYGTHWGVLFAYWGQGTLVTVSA chain 2: DIQMTQTTSSLSASLGDRVTISCRASQDISNYLNWYQQKPDGTVKLLIYYTSILHSGVPSRFSGSGSGTDYSLTISNLEQEDFATYFCQQGNTLPWTFGCGTKLEI ? 59

Please do the same for unnamed (protein) chain 1: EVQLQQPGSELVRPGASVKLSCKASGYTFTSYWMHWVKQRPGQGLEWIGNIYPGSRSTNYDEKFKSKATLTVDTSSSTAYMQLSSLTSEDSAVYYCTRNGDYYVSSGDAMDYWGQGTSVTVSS chain 2: DIQMTQTTSSLSASLGDRVTISCRTSQDIGNYLNWYQQKPDGTVKLLIYYTSRLHSGVPSRFSGSGSGTDFSLTINNVEQEDVATYFCQHYNTVPPTFGGGTKLEIK as well. 0

Please do the same for unnamed (protein) chain 1: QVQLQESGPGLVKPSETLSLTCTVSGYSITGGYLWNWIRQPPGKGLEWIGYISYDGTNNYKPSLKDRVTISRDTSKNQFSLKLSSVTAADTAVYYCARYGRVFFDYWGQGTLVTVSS chain 2: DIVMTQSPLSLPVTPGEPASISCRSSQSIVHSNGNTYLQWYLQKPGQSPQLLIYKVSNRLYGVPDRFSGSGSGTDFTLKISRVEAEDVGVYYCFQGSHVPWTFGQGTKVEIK as well. 0

// provenance: the FLAb antibody collection
